# Tested on: BT-549 breast
# assay_protocol: NCI tumour cell line growth inhibition, 48 h
Task for the reader: assign each of the following molecules its reported TGI.
Give bare numbers, in µM.

Use these answered entries as a reference point.
molecule: Cc1cc(S(=O)(=O)Nc2nc3ccccc3nc2-c2ccc(Cl)cc2)c(S)cc1Cl
TGI, µM: 50.6
//
molecule: COC(=O)C1=C(O)[C@H](C(=O)OC)C2(O)C(C(=O)OC)[C@H](c3ccc(OC(=O)C(C)c4ccc(CC(C)C)cc4)cc3)C[C@@H]1[C@@H]2C(=O)OC (some centres not stated)
TGI, µM: 3.68
//
molecule: COC(=O)[C@H](Cc1cnc[nH]1)NC(=O)[C@@H](NC(=O)Nc1cc(C(F)(F)F)cc(C(F)(F)F)c1)C(C)C
TGI, µM: 33.3
//
molecule: CC1(C)CNc2cc(NC(=O)c3cccnc3NCc3ccncc3)ccc21
TGI, µM: 98.2

Please look at the items below and tell me TGI for each one, in order.
1. COc1cc2c(c(O)c1OC)CC1CCC(=O)N1C2c1cccc2ccccc12 (configuration not stated)
2. COC12C=C/C(=C(/C(=O)OCc3ccccn3)C(=O)CCCCCCCCC3(OC)C=C/C(=C(/C(=O)OCc4ccccn4)C(=O)CCCCCCCC1)O3)O2
3. CCC(C)[C@H](NC(=O)Nc1cc(C(F)(F)F)cc(C(F)(F)F)c1)C(=O)N[C@@H](Cc1cn(C)cn1)C(=O)OC (some centres not stated)
4. Cc1ccc(S(=O)(=O)SC(C)(C)C)cc1
5. CC(C)(C)c1ccc(Oc2ccc(N)cn2)cc1

Response given:
41.6
2.07
1.68
42.3
99.8

---

# Test system: RXF 393 renal
# assay_protocol: NCI tumour cell line growth inhibition, 48 h
quantity_measured: TGI

Record excerpt, results attached:
molecule: c1ccc2c3c([nH]c2c1)[C@H]1C2CCCCN2CN1CC3 (stereo not given in full)
target_or_system: RXF 393 renal
TGI: > 100 µM
//
molecule: COc1cc(/C=N/Nc2ncnc3c2cnn3-c2ccccc2)ccc1O
target_or_system: RXF 393 renal
TGI: > 25 µM
//
molecule: CCOP(=O)(OCC)C1CCCOC1=O (stereo not given)
target_or_system: RXF 393 renal
TGI: > 100 µM

Respectfully, I request TGI for each entry included below.
1. C[C@@H]1C(=O)C[C@H]2C(C)(C)CCC[C@]2(C)[C@@]1(O)CCc1ccoc1
2. Cc1c(N=Nc2ccccc2)c(C)n(C2OC(CO)C(O)C(O)C2O)c(=S)c1C#N (stereo not given)

Response given:
["> 100 µM", "> 100 µM"]

---

# System: HOP-92 NSCLC
# assay_protocol: NCI tumour cell line growth inhibition, 48 h
quantity_measured: TGI

Some compounds with recorded TGI:
compound: COC(=O)c1c(C#N)c(N)nc2c1CCC2
target_or_system: HOP-92 NSCLC
quantity_measured: TGI
result: > 100 µM
--
compound: c1ccc2c3c([nH]c2c1)[C@H]1C2CCCCN2CN1CC3 (some centres undefined)
target_or_system: HOP-92 NSCLC
quantity_measured: TGI
result: > 100 µM
--
compound: Cc1nc(C)c(N2CCNCC2)c(=O)[nH]1
target_or_system: HOP-92 NSCLC
quantity_measured: TGI
result: > 100 µM
--
compound: CCOC(=O)Oc1cc2c(c(OC)c1OC)-c1ccc(OC)c(=O)cc1C(NC(C)=O)CC2 (centres undefined)
target_or_system: HOP-92 NSCLC
quantity_measured: TGI
result: 28.7 µM

Hey, quick one: what's TGI for each of these?
1. c1csc(-c2ccsc2-c2cccs2)c1
2. COc1cc2c(c(O)c1OC)CC1CCC(=O)N1C2c1cccc2ccccc12 (centres undefined)

Response given:
> 100 µM
45.7 µM

Please go through the list and note TGI for each compound.
1. S=c1[nH]n2c(CCCCCCCCc3nnc4sc(=S)[nH]n34)nnc2s1
2. CC(N)(Cc1c[nH]c2cccc(F)c12)C(=O)O (centres undefined)
3. O=S(=O)(O)c1cc(O)c(N=Nc2ccc(O)cc2O)c2ccccc12

Response given:
1: > 100 µM; 2: > 1000 µM; 3: > 100 µM
